# Test system: HEK-293T
# procedureSummary: Multiplex assay against HEK293T
# Assay type: toxicity, cell-based
# conditionParameters: human, 12 h, 1 µM, compound concentration 1 uM, replicate 2
measurementName: Population Mitochondria Different-Phenotype (%)

Give Population Mitochondria Different-Phenotype (%) for CCCCC(=O)N(Cc1ccc(-c2ccccc2-c2nnn[nH]2)cc1)[C@H](C(=O)O)C(C)C
49%

Give Population Mitochondria Different-Phenotype (%) for CN1CCN(c2cc(-c3ccccc3)nc(N)n2)CC1
48%

Give Population Mitochondria Different-Phenotype (%) for N#Cc1c(Oc2cccc(OS(=O)(=O)CCCC(F)(F)F)c2)cccc1C(F)(F)F
60%

Give Population Mitochondria Different-Phenotype (%) for COc1cccc2c1c(NS(=O)(=O)c1ccc(Cl)s1)nn2Cc1cccc(CNC(=O)C(C)(C)O)c1
52%
